For each of the variants below, state its self-cleavage.
B1: HDV Ribozyme (parent)
chain: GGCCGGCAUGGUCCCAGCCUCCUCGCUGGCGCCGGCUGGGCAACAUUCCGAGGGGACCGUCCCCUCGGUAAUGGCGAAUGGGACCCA

# Variants of: B1
# Test method notes: self-cleavage, relative activity (ratio to wild type); higher = more cleavage; co-transcriptional

Qu. May I ask what self-cleavage has been recorded for C22U U60G ?
Ans. 0.944

Qu. Also C26U G34U ?
Ans. 0.767

Qu. Also C57A G76C ?
Ans. 1.05

Qu. Also C66G G81U ?
Ans. 0.214

Qu. Also C4G A56U ?
Ans. 0.462

Qu. Also G54C A83C ?
Ans. 0.332

Qu. Also C13A A77G ?
Ans. 0

Qu. Also C3A A70G ?
Ans. 0.686

Qu. Also G31A G53A ?
Ans. 0.487

Qu. Also G28A G39A ?
Ans. 0.187

Qu. Also C18A C19A ?
Ans. 0.128

Qu. Also C13G G50U ?
Ans. 0.0426

Qu. Also C61A A71G ?
Ans. 1.11

Qu. Also G1U U27A ?
Ans. 0.44

Qu. Also C26G G50A ?
Ans. 0.923

Qu. Also G76U A83C ?
Ans. 0.755

Qu. Also C44G G80A ?
Ans. 0.223

Qu. Also A42G C48A ?
Ans. 0.7

Qu. Also G55C C66U ?
Ans. 0.983

Qu. Also G31C C41G ?
Ans. 0.269

Qu. Also C15G G53A ?
Ans. 0.353

Qu. Also G39U G67C ?
Ans. 0.746

Qu. Also G34U A83U ?
Ans. 0.173

Qu. Also C63A G73C ?
Ans. 0.332

Qu. Also G10C A42U ?
Ans. 0.289

Qu. Also C14G C85U ?
Ans. 1.31

Qu. Also A56G G68U ?
Ans. 1.18

Qu. Also G52U C64G ?
Ans. 0.902

Qu. Also C48A C62U ?
Ans. 1.05

Qu. Also G2U C14A ?
Ans. 0.12

Qu. Also G39A G53U ?
Ans. 0.504

Qu. Also A8C C19A ?
Ans. 0.0449

Qu. Also C24A U47G ?
Ans. 0.434

Qu. Also G53A G73U ?
Ans. 0.304

Qu. Also C15A G52U ?
Ans. 0.844

Qu. Also C30A G74C ?
Ans. 0.158

Qu. Also C30A G67C ?
Ans. 0.318

Qu. Also C13A C85A ?
Ans. 0.19

Qu. Also G34A C48A ?
Ans. 0.259

Qu. Also C21G A87G ?
Ans. 0.0462

Qu. Also C7A C13U ?
Ans. 0.0361

Qu. Also C21A G34U ?
Ans. 0.0647

Qu. Also C15A C44G ?
Ans. 0.431

Qu. Also C13A A43U ?
Ans. 0.154

Qu. Also U20C U79A ?
Ans. 0

Qu. Also G55C G82U ?
Ans. 0.277

Qu. Also C33U G35C ?
Ans. 0.237

Qu. Also C49G G50C ?
Ans. 0.587

Qu. Also G35C C61U ?
Ans. 0.188

Qu. Also G25U C75A ?
Ans. 0.0941

Qu. Also A51G G59C ?
Ans. 0.895

Qu. Also C7G U60A ?
Ans. 0.317

Qu. Also C3G C15A ?
Ans. 0.293

Qu. Also C33A C44A ?
Ans. 0

Qu. Also A16U C22G ?
Ans. 0.161

Qu. Also G53C G80U ?
Ans. 0.293

Qu. Also U12G C44U ?
Ans. 0.598

Qu. Also C48G G82C ?
Ans. 0.111

Qu. Also G73C G80A ?
Ans. 0.284

Qu. Also C33U A78C ?
Ans. 0.0831

Qu. Also G17A G52C ?
Ans. 0.923

Qu. Also C19A U69C ?
Ans. 0.146

Qu. Also C57G G81C ?
Ans. 0.177

Qu. Also G34C G67U ?
Ans. 0.166

Qu. Also G28U A43U ?
Ans. 0.0615
